# Target: Steroid 5-alpha-reductase (Rattus norvegicus, UniProt P24008+P31214)
# Assay: Inhibition of Steroid 5-alpha-reductase of rat ventral prostate tissue
# Type: tissue-based, Prostate gland
Value Kind: log10 of Ki app (log10 of the value in µM)
Plainly stated, the numbers are log10 of Ki app given in µM.

>>> df
                                   molecule       value_kind  obs_value
0  CC(C)N(C(=O)[C@H]1CC[C@H]2[C@@H]3CCc4c(ccc(C(=O)O)c4F)[C@H]3CC[C@]12C)C(C)C  log10 of Ki app      -0.30
1  CC(C)(C)NC(=O)[C@H]1CC[C@H]2[C@@H]3CCc4cc(C(=O)O)ccc4[C@H]3CC[C@]12C  log10 of Ki app      -0.82
2  CC(C)N(C(=O)[C@H]1CC[C@H]2[C@@H]3CCc4cc(C(=O)O)ccc4[C@H]3CC[C@]12C)C(C)C  log10 of Ki app      -0.45
3  CC(C)N(C(=O)[C@H]1CC[C@H]2[C@@H]3CCc4c(ccc(C(=O)O)c4Br)[C@H]3CC[C@]12C)C(C)C  log10 of Ki app       0.28
4  CC(C)N(C(=O)[C@H]1CCC2C3C=Cc4cc(C(=O)O)ccc4C3CC[C@@]21C)C(C)C (stereo not given in full)  log10 of Ki app      -0.35

Each molecule below has a recorded value; state its log10 of Ki app.
1. CC(C)N(C(=O)[C@H]1CC[C@H]2[C@@H]3CCc4cc(C(=O)O)c(Cl)cc4[C@H]3CC[C@]12C)C(C)C
2. CC(C)N(C(=O)[C@H]1CCC2c3ccc4cc(C(=O)O)ccc4c3CC[C@@]21C)C(C)C (stereo not given in full)
3. CC(C)N(C(=O)[C@H]1CC[C@H]2[C@@H]3CCc4c(ccc(C(=O)O)c4Cl)[C@H]3CC[C@]12C)C(C)C

[-0.70, -0.46, -0.05]

I'm curious: which log10 of Ki app was measured for CC(C)N(C(=O)[C@H]1CC[C@H]2[C@@H]3CCc4cc(C(=O)O)c(C#N)cc4[C@H]3CC[C@]12C)C(C)C tested on Steroid 5-alpha-reductase (Rattus norvegicus, UniProt P24008+P31214)?
-0.02

// data source = ChEMBL document CHEMBL1124724
